Target: Cyclooxygenase-1 from Ram Seminal Vesicle Microsomes (RSVM) (Ovis aries, UniProt P05979)
Construct: ram seminal vesicles were homogenised by a blender; from tissue; host or cells: ram seminal vesicles (microsomes)
Sequence (P05979 25-600): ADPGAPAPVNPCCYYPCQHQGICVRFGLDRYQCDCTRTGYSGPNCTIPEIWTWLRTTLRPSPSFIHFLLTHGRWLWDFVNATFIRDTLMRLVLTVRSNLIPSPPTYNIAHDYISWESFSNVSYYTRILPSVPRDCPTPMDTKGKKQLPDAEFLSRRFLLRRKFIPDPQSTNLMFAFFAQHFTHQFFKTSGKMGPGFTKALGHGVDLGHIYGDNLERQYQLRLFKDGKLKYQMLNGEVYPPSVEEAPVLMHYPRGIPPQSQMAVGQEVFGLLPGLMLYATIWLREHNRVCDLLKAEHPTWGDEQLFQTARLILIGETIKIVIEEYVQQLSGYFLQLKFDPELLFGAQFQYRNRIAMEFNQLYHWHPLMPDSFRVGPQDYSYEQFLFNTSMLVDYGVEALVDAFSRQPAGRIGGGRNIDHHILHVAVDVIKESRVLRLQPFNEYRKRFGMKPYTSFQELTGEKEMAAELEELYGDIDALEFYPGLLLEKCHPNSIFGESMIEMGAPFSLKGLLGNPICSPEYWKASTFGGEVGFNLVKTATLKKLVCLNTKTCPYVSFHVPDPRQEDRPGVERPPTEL
Test: Inhibitory activity on cyclooxygenase-1 from ram seminal vesicle microsomes (PGE2 ELISA)
Type: biochemical
Conditions: PGE2 formation, read-out: Inhibitory Effect on COX-1[IC50(μM)]
Sorting guide: entries reporting IC50 beneath 10 µM go in the met pile, the rest go in the not met pile.

Recorded results for 3 molecules are shown here.
molecule: Cc1cc(-c2ccc(S(N)(=O)=O)cc2)n(-c2ccc3c(c2)OCO3)c1 [Example 109]
class: met

molecule: COc1ccc(-c2cc(C)cn2-c2ccc(S(C)(=O)=O)cc2)cc1 [Example 80]
class: not met

molecule: Cc1cc(-c2ccc(S(N)(=O)=O)cc2)n(-c2ccc(Cl)c(Cl)c2)c1 [Example 103]
class: met

Problem: IC50 under 10 µM? Item: Cc1cc(-c2ccc(Cl)cc2)n(-c2ccc(S(N)(=O)=O)cc2)c1 [Example 65]
Solution: not met

Problem: IC50 under 10 µM? Item: Cc1cc(-c2ccc(S(N)(=O)=O)cc2)n(-c2ccc(F)cc2)c1 [Example 20]
Solution: not met

* * *

tested on: gastric mucosa; assay: Irritative effect on gastric mucosa; format: in vivo, Wistar rats; details: oral; dose producing 50% incidence of gastric ulcers, 3.5 hours after dosing
endpoint: UD50

Problem: Field: UD50 (gastric mucosa). Entry: Cc1cc(-c2ccc(Cl)c(Cl)c2)n(-c2ccc(S(N)(=O)=O)cc2)c1
Solution: >100 mg/kg

* * *

molecular target: Human Recombinant Cyclooxygenase-2 (Homo sapiens); construct: made in house; host or cells: COS cells (transient expression; microsomes prepared after 66 hours); assay: Inhibitory activity on human recombinant cyclooxygenase-2 microsomes from COS cells (PGE2 ELISA); assay type: biochemical; conditions: human recombinant COX-2 microsomes; PGE2 formation; read-out: Inhibitory Effect on COX-2 [IC50 (μM)]
Listing of entries alongside the reported IC50.
I only need the number, in µM, no unit after it.

compound: COc1ccc(-c2cc(C)cn2-c2ccc(S(N)(=O)=O)cc2)cc1 [Example 52]
display unit: µM
IC50: 0.016

Problem: Name the recorded IC50 for Cc1cc(-c2ccc(S(N)(=O)=O)cc2)n(-c2ccc(F)cc2)c1Cl [Example 38] .
Solution: 0.023

Problem: Name the recorded IC50 for COc1ccc(-c2c(C)ccn2-c2ccc(S(N)(=O)=O)cc2)cc1 [Example 73] .
Solution: 0.025

Problem: Name the recorded IC50 for COc1ccc(-n2cc(C)cc2-c2ccc(S(N)(=O)=O)cc2)cc1 [Example 62] .
Solution: 0.0097

Problem: Name the recorded IC50 for Cc1cc(-c2ccc(S(C)(=O)=O)cc2)n(-c2ccc(C)c(C)c2)c1 [Example 56] .
Solution: 0.018

Problem: Name the recorded IC50 for Cc1cc(-c2ccc(S(N)(=O)=O)cc2)n(-c2ccc(Cl)c(Cl)c2)c1 [Example 103] .
Solution: 0.01

Problem: Name the recorded IC50 for Cc1cc(-c2ccc(S(N)(=O)=O)cc2)n(-c2ccc3c(c2)OCO3)c1 [Example 109] .
Solution: 0.023

* * *

Target: Human Recombinant Cyclooxygenase-2 (Homo sapiens, UniProt P35354)
Construct: made in house; host or cells: COS cells (transient expression; microsomes prepared after 66 hours)
Sequence (P35354 18-604): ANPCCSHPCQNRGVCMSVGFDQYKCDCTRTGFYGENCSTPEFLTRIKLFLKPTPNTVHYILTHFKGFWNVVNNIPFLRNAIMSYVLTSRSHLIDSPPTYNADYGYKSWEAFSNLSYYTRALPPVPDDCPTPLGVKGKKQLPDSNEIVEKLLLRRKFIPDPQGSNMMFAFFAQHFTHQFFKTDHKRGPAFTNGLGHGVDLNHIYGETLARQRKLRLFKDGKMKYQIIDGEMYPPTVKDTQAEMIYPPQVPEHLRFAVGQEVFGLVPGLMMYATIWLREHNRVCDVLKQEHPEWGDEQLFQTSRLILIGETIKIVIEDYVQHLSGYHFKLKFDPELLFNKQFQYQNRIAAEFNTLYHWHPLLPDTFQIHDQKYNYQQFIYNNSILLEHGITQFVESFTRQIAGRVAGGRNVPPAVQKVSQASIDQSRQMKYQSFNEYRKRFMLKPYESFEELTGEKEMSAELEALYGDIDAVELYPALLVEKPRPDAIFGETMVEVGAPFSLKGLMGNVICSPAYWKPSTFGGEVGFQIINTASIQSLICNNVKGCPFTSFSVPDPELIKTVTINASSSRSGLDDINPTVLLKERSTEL
Test: Inhibitory activity on human recombinant cyclooxygenase-2 microsomes from COS cells (PGE2 ELISA)
Assay type: biochemical
Conditions: human recombinant COX-2 microsomes; PGE2 formation; read-out: Inhibitory Effect on COX-2 [IC50 (μM)]
Listing of entries alongside the reported IC50.
I only need the number, in µM, no unit after it.

Reference set, count: 3
molecule: Cc1cc(-c2ccc(S(N)(=O)=O)cc2)n(-c2ccc(F)cc2)c1 [Example 20]
display unit: µM
IC50: 0.023

molecule: COc1ccc(-c2cc(C)cn2-c2ccc(S(C)(=O)=O)cc2)cc1 [Example 80]
display unit: µM
IC50: 0.011

molecule: Cc1ccc(-n2cc(C)cc2-c2ccc(S(N)(=O)=O)cc2)cc1 [Example 58]
display unit: µM
IC50: 0.019

Now for another entry.
Problem: Name the recorded IC50 for Cc1cc(-c2ccc(Cl)cc2)n(-c2ccc(S(N)(=O)=O)cc2)c1 [Example 65] .
Solution: 0.015

* * *

Listing of entries alongside the reported UD50.
system: gastric mucosa; experiment: Irritative effect on gastric mucosa; format: in vivo, Wistar rats; conditions: oral; dose producing 50% incidence of gastric ulcers, 3.5 hours after dosing

molecule: COc1ccc(-c2cc(C)cn2-c2ccc(S(N)(=O)=O)cc2)cc1C
experimental system: gastric mucosa
recorded measurement: >100 mg/kg
--
molecule: Cc1cc(-c2ccc(S(N)(=O)=O)cc2)n(-c2ccc(Cl)c(Cl)c2)c1
experimental system: gastric mucosa
recorded measurement: >100 mg/kg
--
molecule: COc1ccc(-c2cccn2-c2ccc(S(N)(=O)=O)cc2)cc1
experimental system: gastric mucosa
recorded measurement: >100 mg/kg

Problem: Name the recorded UD50 for Cc1cc(-c2ccc(C)c(C)c2)n(-c2ccc(S(N)(=O)=O)cc2)c1 .
Solution: >100 mg/kg

Problem: Name the recorded UD50 for COc1ccc(-c2cc(C)cn2-c2ccc(S(N)(=O)=O)cc2)cc1F .
Solution: >100 mg/kg

* * *

Test system: yeast-inflamed pain in rats
Experiment: Analgesic effect on yeast-inflamed pain in rats (Randall-Selitto method)
Type: in vivo, Wistar-Imamichi rats
Conditions: Rattus norvegicus, oral, pain threshold 0.5, 1 and 2 hours after administration, read-out: Efficacy Rate (No. of animals in which drug was effective/No. of animals used in test) (converted)
Protocol: The compound was suspended in 0.5%tragacanth and administered orally at a volume of 5 ml/kg. The control group was administered with 0.5% tragacanth only as a vehicle. Wistar-Imamichi rats (males, 5 week old, body weights: 80-100 g) were used in this test. […] First the average of pain threshold values at each time point (0.5, 1, and 2 hr) was calculated in a control group. […]
Listing of entries alongside the reported responders at 12.5 mg/kg.
Put your answer as a value accompanied by its unit after it.

Reference set, count: 4
molecule: CSc1ccc(-c2cc(C)cn2-c2ccc(S(N)(=O)=O)cc2)cc1
recorded measurement: 100%

molecule: CCOc1ccc(-n2c(Cl)ccc2-c2ccc(S(N)(=O)=O)cc2)cc1
recorded measurement: 100%

molecule: CCOc1ccc(-c2cc(C)cn2-c2ccc(S(N)(=O)=O)cc2)cc1
recorded measurement: 100%

molecule: CSc1ccc(-n2c(Cl)ccc2-c2ccc(S(N)(=O)=O)cc2)cc1
recorded measurement: 100%

Now for another entry.
Problem: Name the recorded responders at 12.5 mg/kg for CSc1ccc(-c2c(C)ccn2-c2ccc(S(N)(=O)=O)cc2)cc1 .
Solution: 100%
